SYSTEM_TESTED: Human Full Length PARG (Homo sapiens (Human), UniProt Q86W56)
Sequence (Q86W56 whole entry): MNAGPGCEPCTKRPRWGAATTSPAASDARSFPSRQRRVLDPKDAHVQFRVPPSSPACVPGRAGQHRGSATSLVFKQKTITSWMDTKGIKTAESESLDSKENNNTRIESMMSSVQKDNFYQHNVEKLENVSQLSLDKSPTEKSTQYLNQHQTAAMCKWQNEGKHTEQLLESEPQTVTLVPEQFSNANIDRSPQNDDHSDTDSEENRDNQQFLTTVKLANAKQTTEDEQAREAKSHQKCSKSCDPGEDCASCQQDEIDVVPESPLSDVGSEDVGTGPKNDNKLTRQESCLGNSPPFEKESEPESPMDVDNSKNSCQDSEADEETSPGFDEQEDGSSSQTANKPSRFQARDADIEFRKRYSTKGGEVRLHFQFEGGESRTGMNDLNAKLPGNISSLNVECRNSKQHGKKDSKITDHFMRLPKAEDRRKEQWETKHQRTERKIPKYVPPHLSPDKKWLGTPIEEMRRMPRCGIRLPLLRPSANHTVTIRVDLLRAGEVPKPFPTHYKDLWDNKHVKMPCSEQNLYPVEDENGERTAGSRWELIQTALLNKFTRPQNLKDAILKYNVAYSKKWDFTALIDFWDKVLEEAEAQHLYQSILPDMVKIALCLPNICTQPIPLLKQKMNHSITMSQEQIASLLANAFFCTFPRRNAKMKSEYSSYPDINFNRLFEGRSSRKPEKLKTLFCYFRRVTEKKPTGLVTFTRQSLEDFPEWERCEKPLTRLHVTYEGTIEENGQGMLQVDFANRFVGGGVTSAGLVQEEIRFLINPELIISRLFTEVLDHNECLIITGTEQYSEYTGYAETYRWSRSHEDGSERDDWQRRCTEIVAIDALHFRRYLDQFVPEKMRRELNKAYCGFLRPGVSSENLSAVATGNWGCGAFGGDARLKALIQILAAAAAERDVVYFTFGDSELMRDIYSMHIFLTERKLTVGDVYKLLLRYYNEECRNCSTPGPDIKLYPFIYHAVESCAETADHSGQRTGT
ASSAY_EXPLANATION: PARG in vitro enzyme assay (TR-FRET)
CONDITIONS: read-out: PARG_EC50_ENZYME
Overview of reported EC50 across a group of compounds:
QUANTITY: EC50 (µM)

> print(dat)
                                 smiles.code                             system.tested  numeric.readout
 1  Cc1ncc(Cn2c(=O)n(C)c3cc(S(=O)(=O)NC4(C)CC4)ccc32)s1  Human Full Length PARG (Homo sapiens (Human), UniProt Q86W56)              9.8
 2  CNC(=O)c1noc(Cn2c(=O)n(-c3nnc(C)o3)c3cc(S(=O)(=O)NC4(C)CC4)ccc32)n1  Human Full Length PARG (Homo sapiens (Human), UniProt Q86W56)            0.275
 3  CC(=O)OCCn1c(=O)n(C)c2cc(S(=O)(=O)NC3(C)CC3)ccc21  Human Full Length PARG (Homo sapiens (Human), UniProt Q86W56)             9.18
 4  Cn1c(=O)n(Cc2cccc(C(N)=O)c2)c2ccc(S(=O)(=O)NC3(C)CC3)cc21  Human Full Length PARG (Homo sapiens (Human), UniProt Q86W56)             6.06
 5  Cc1ccc(Cn2c(=O)n(C)c3cc(S(=O)(=O)NC4(C)CC4)ccc32)o1  Human Full Length PARG (Homo sapiens (Human), UniProt Q86W56)              3.5
 6  Cc1ccccc1C(=O)n1c(=O)n(C)c2ccc(S(=O)(=O)NC3(C)CC3)cc21  Human Full Length PARG (Homo sapiens (Human), UniProt Q86W56)             4.91
 7  Cc1nc(C)c(Cn2c(=O)n(-c3cnsc3)c3cc(S(=O)(=O)NC4(C)CC4)ccc32)s1  Human Full Length PARG (Homo sapiens (Human), UniProt Q86W56)             1.34
 8  COCCn1c(=O)n(-c2nnc(C)o2)c2cc(S(=O)(=O)NC3(C)CC3)ccc21  Human Full Length PARG (Homo sapiens (Human), UniProt Q86W56)             0.91
 9  CCn1c(=O)n(-c2nnc(C)o2)c2cc(S(=O)(=O)NC3(C)CC3)ccc21  Human Full Length PARG (Homo sapiens (Human), UniProt Q86W56)            0.934
10  Cc1nc(C)c(Cn2c(=O)n(-c3nncs3)c3cc(S(=O)(=O)NC4(C)CC4)ccc32)s1  Human Full Length PARG (Homo sapiens (Human), UniProt Q86W56)            0.234
11  COCCn1c(=O)n(-c2nc(C)ns2)c2cc(S(=O)(=O)NC3(CF)CC3)ccc21  Human Full Length PARG (Homo sapiens (Human), UniProt Q86W56)             1.39
12  Cc1nnc(-n2c(=O)n(Cc3sc(C)nc3C)c3ccc(S(=O)(=O)NC4(C)CC4)cc32)s1  Human Full Length PARG (Homo sapiens (Human), UniProt Q86W56)            0.068
13  CCn1c(=O)n(-c2nnc(C(F)F)o2)c2cc(S(=O)(=O)NC3(C)CC3)c(F)cc21  Human Full Length PARG (Homo sapiens (Human), UniProt Q86W56)            0.314
14  CCn1c(=O)n(-c2nnc(C(F)F)o2)c2cc(S(=O)(=O)NC3(C)CC3)ccc21  Human Full Length PARG (Homo sapiens (Human), UniProt Q86W56)            0.759
15  Cc1nnc(-n2c(=O)[nH]c3ccc(S(=O)(=O)NC4(C)CC4)cc32)o1  Human Full Length PARG (Homo sapiens (Human), UniProt Q86W56)             1.46
16  CCOC(=O)n1c(=O)n(Cc2sc(C)nc2C)c2ccc(S(=O)(=O)NC3(C)CC3)cc21  Human Full Length PARG (Homo sapiens (Human), UniProt Q86W56)             0.14
